Molecular target: Avi-KRAS WT (1-169) GppNHp/RAF1 RBD-3xFLAG (52-151) (Homo sapiens, UniProt P01116)
Construct: Avi-KRAS WT (1-169)
Sequence (P01116 1-169 isoform P01116-2): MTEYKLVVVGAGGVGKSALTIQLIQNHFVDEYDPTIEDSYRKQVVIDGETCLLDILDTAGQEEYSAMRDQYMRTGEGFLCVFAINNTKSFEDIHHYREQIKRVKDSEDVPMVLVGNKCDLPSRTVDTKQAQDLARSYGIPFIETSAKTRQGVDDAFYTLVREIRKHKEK
Experiment: Raf1-KRAS WT-GppNHP disruption HTRF assay (Biological Example 1)
Type: binding
Conditions: KRAS WT, GppNHp-loaded; Table 11
Method: A protein:protein interaction (PPI) Homogeneous Time Resolved Fluorescence (HTRF) assay was used to determine the effectiveness of compounds of the present disclosure in disrupting KRAS protein and effector RAF1 binding. The assay buffer included: 50 mM Tris pH 7.5, 100 mM NaCl, 5 mM MgCl2, 0.1% BSA, 0.01% Tween, and 10% DMSO. The bead buffer included: 50 mM Tris pH 7.5, and 0.01% Tween 20. […] Data was reported as percentage of activity, with DMSO as 100%. Data was plotted and analyzed using Prism 8.
pIC50: −log10 of the molar value.
Quantity measured: pIC50

Q. What value of measured pIC50 is listed for CN(c1nc(OC[C@@]23CCCN2C[C@H](F)C3)nc2c(F)c(-c3ccc(F)c4sc(N)c(C#N)c34)c(C(F)(F)F)cc12)[C@@H]1CCCOC1 [Compound 274] ?
A. 6.00 to 7.00

Q. What value of measured pIC50 is listed for C[C@H]1[C@@H](N(C)c2nc(OC[C@@]34CCCN3C[C@H](F)C4)nc3c(F)c(-c4ccc(F)c5sc(N)c(C#N)c45)c(C(F)(F)F)cc23)CCN1C(=O)CC#N [Compound 252] ?
A. 5.00 to 6.00

Q. What value of measured pIC50 is listed for C[C@H]1COC[C@H](C)N1c1nc(OC[C@@]23CCCN2C[C@H](F)C3)nc2c(F)c(-c3ccc(F)c4sc(N)c(C#N)c34)c(C(F)(F)F)cc12 [Compound 200] ?
A. 5.00 to 6.00

Q. What value of measured pIC50 is listed for CN(c1nc(OCC23CCCN2CCC3)nc2c(F)c(-c3ccc(F)c4sc(N)nc34)c(C(F)(F)F)cc12)C1CC(CO)C1 (stereo not drawn) [Compound 4] ?
A. 5.00 to 6.00

Q. What value of measured pIC50 is listed for CC(=O)N(C)[C@@H]1CCN(c2nc(OC[C@@]34CCCN3C[C@H](F)C4)nc3c(F)c(-c4ccc(F)c5sc(N)c(C#N)c45)c(C(F)(F)F)cc23)C1 [Compound 207] ?
A. 6.00 to 7.00

Q. What value of measured pIC50 is listed for CN(c1nc(OC[C@@]23CCCN2C[C@H](F)C3)nc2c(F)c(-c3ccc(F)c4sc(N)c(C#N)c34)c(C(F)(F)F)cc12)[C@]1(CC#N)C[C@H](O)C1 (atropisomer, axis not shown) [Compound 249] ?
A. 6.00 to 7.00

====

tested on: GP2d cells (KRAS G12D); assay: Cell-based pERK HTRF assay in GP2d cell (Biological Example 2); settings: GP2d, GP2d (KRAS G12D) cells, pERK HTRF
pIC50: −log10 of the molar value.
Please go through the items and note down their pIC50.

Q. What value of measured pIC50 is listed for C[C@H]1CN(c2nc(OC[C@@]34CCCN3C[C@H](F)C4)nc3c(F)c(-c4ccc(F)c5sc(N)c(C#N)c45)c(C(F)(F)F)cc23)Cc2cc(C(=O)N(C)C)nn21 [Compound 402] ?
A. > 7.00

Q. What value of measured pIC50 is listed for C[C@H]1[C@H](O)CCCN1c1nc(OC[C@@]23CCCN2C[C@H](F)C3)nc2c(F)c(-c3ccc(F)c4sc(N)c(C#N)c34)c(C(F)(F)F)cc12 [Compound 473] ?
A. > 7.00

Q. What value of measured pIC50 is listed for N#Cc1c(N)sc2c(F)ccc(-c3c(C(F)(F)F)cc4c(N5CCO[C@@H]6C[C@@H]65)nc(OC[C@@]56CCCN5C[C@H](F)C6)nc4c3F)c12 [Compound 411] ?
A. > 7.00

====

Target: Avi-KRAS G12R (1-169) GppNHp/RAF1 RBD-3xFLAG (52-151) (Homo sapiens, UniProt P01116, G12R)
Construct: Avi-KRAS G12R (1-169)
Sequence (P01116 1-169 isoform P01116-2 G12R): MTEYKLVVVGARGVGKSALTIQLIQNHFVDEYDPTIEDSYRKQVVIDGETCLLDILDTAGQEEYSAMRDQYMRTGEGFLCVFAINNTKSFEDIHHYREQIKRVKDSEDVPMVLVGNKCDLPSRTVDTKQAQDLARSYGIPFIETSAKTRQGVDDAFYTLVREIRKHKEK
Test: Raf1-KRAS G12R-GppNHP disruption HTRF assay (Biological Example 1)
Format: binding
Settings: KRAS G12R, GppNHp-loaded; class symbols
Protocol: A protein:protein interaction (PPI) Homogeneous Time Resolved Fluorescence (HTRF) assay was used to determine the effectiveness of compounds of the present disclosure in disrupting KRAS protein and effector RAF1 binding. The assay buffer included: 50 mM Tris pH 7.5, 100 mM NaCl, 5 mM MgCl2, 0.1% BSA, 0.01% Tween, and 10% DMSO. The bead buffer included: 50 mM Tris pH 7.5, and 0.01% Tween 20. […] Data was reported as percentage of activity, with DMSO as 100%. Data was plotted and analyzed using Prism 8.
Quantity measured: IC50

Q. What value of measured IC50 is listed for CCN(c1nc(OC[C@@]23CCCN2C[C@H](F)C3)nc2c(F)c(-c3ccc(F)c4sc(N)c(C#N)c34)c(C(F)(F)F)cc12)[C@H]1CCN(C(=O)N2C[C@H]3C[C@@H]2CO3)C1 (atropisomer, axis not shown) ?
A. < 100 nM

Q. What value of measured IC50 is listed for CCN(c1nc(OC[C@@]23CCCN2C[C@H](F)C3)nc2c(F)c(-c3ccc(F)c4sc(N)c(C#N)c34)c(C(F)(F)F)cc12)[C@H]1CCN(C(=O)N2CC3(COC3)C2)C1 (atropisomer, axis not shown) ?
A. < 100 nM

Q. What value of measured IC50 is listed for CCN(c1nc(OC[C@@]23CCCN2C[C@H](F)C3)nc2c(F)c(-c3ccc(F)c4sc(N)c(C#N)c34)c(C(F)(F)F)cc12)[C@H]1CCN(C(=O)[C@H](C)CF)C1 (atropisomer, axis not shown) ?
A. < 100 nM

Q. What value of measured IC50 is listed for CCN(c1nc(OC[C@@]23CCCN2C[C@H](F)C3)nc2c(F)c(-c3ccc(F)c4sc(N)c(C#N)c34)c(C(F)(F)F)cc12)[C@H]1C[C@H]2CN(C(C)C)C(=O)N2C1 (atropisomer, axis not shown) ?
A. < 100 nM

Q. What value of measured IC50 is listed for CO[C@@H](C)C(=O)N1CC[C@H](N(c2nc(OC[C@@]34CCCN3C[C@H](F)C4)nc3c(F)c(-c4ccc(F)c5sc(N)c(C#N)c45)c(C(F)(F)F)cc23)C2CC2)C1 (atropisomer, axis not shown) ?
A. 100 to 1000 nM

Q. What value of measured IC50 is listed for CCN(c1nc(OC[C@@]23CCCN2C[C@H](F)C3)nc2c(F)c(-c3ccc(F)c4sc(N)c(C#N)c34)c(C(F)(F)F)cc12)[C@H]1C[C@@H](C)N(C(=O)N2CC(F)C2)C1 (atropisomer, axis not shown) ?
A. 100 to 1000 nM

Q. What value of measured IC50 is listed for N#Cc1c(N)sc2c(F)ccc(-c3c(C(F)(F)F)cc4c(N(C5CC5)[C@H]5CCN(C(=O)[C@H]6CCO6)C5)nc(OC[C@@]56CCCN5C[C@H](F)C6)nc4c3F)c12 (atropisomer, axis not shown) ?
A. 100 to 1000 nM

Q. What value of measured IC50 is listed for CCN(c1nc(OC[C@@]23CCCN2C[C@H](F)C3)nc2c(F)c(-c3ccc(F)c4sc(N)c(C#N)c34)c(C(F)(F)F)cc12)[C@H]1CCN(C(=O)N2CC3CC(C2)O3)C1 ?
A. < 100 nM

Q. What value of measured IC50 is listed for CCN(c1nc(OC[C@@]23CCCN2C[C@H](F)C3)nc2c(F)c(-c3ccc(F)c4sc(N)c(C#N)c34)c(C(F)(F)F)cc12)[C@@H]1C[C@@H](C)N(C(=O)COC)C1 (atropisomer, axis not shown) ?
A. 100 to 1000 nM

====

molecular target: Avi-KRAS G12V (1-169) GppNHp/RAF1 RBD-3xFLAG (52-151) (Homo sapiens, UniProt P01116, G12V); construct: Avi-KRAS G12V (1-169); test: Raf1-KRAS G12V-GppNHP disruption HTRF assay (Biological Example 1); format: binding; conditions: KRAS G12V-GppNHp/RAF1 RBD HTRF
Sequence (P01116 1-169 isoform P01116-2 G12V): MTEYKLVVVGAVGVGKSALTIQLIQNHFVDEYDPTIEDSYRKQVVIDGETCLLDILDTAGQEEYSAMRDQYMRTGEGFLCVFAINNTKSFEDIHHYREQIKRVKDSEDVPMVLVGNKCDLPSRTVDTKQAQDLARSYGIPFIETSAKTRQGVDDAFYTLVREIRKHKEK
Quantity measured: IC50

Q. What value of measured IC50 is listed for CCOC(=O)N1CC[C@H](N(CC)c2nc(OC[C@@]34CCCN3C[C@H](F)C4)nc3c(F)c(-c4ccc(F)c5sc(N)c(C#N)c45)c(C(F)(F)F)cc23)C1 ?
A. < 0.1 µM

Q. What value of measured IC50 is listed for CC(C)C(=O)N1CC[C@@H](N(C)c2nc(OC[C@@]34CCCN3C[C@H](F)C4)nc3c(F)c(-c4ccc(F)c5sc(N)c(C#N)c45)c(C(F)(F)F)cc23)[C@@H]1C ?
A. 1 to 10 µM

Q. What value of measured IC50 is listed for CCN(c1nc(OC[C@@]23CCCN2C[C@H](F)C3)nc2c(F)c(-c3ccc(F)c4sc(N)c(C#N)c34)c(C(F)(F)F)cc12)[C@H]1CCN(C(=O)N2CCOCC2)C1 (atropisomer, axis not shown) ?
A. < 0.1 µM

Q. What value of measured IC50 is listed for CCC(=O)N1CC[C@@H](N(C)c2nc(OC[C@@]34CCCN3C[C@H](F)C4)nc3c(F)c(-c4ccc(F)c5sc(N)c(C#N)c45)c(Cl)cc23)[C@H]1C ?
A. 0.1 to 1 µM

Q. What value of measured IC50 is listed for CN(c1nc(OC[C@@]23CCCN2C[C@H](F)C3)nc2c(F)c(-c3ccc(F)c4sc(N)c(C#N)c34)c(C(F)(F)F)cc12)[C@@H]1C[C@H]2COC(=O)N2C1 ?
A. 0.1 to 1 µM

Q. What value of measured IC50 is listed for CCN(c1nc(OC[C@@]23CCCN2C[C@H](F)C3)nc2c(F)c(-c3ccc(F)c4sc(N)c(C#N)c34)c(C(F)(F)F)cc12)[C@@H]1C[C@H]2CCC(=O)N2C1 (atropisomer, axis not shown) ?
A. 0.1 to 1 µM

Q. What value of measured IC50 is listed for CCN(c1nc(OC[C@@]23CCCN2C[C@H](F)C3)nc2c(F)c(-c3ccc(F)c4sc(N)c(C#N)c34)c(C(F)(F)F)cc12)[C@H]1CCN(C(=O)C2CCC2)C1 (atropisomer, axis not shown) ?
A. < 0.1 µM

Q. What value of measured IC50 is listed for CN(C)C(=O)[C@@H]1CC[C@@H](N(C)c2nc(OC[C@@]34CCCN3C[C@H](F)C4)nc3c(F)c(-c4ccc(F)c5sc(N)c(C#N)c45)c(C(F)(F)F)cc23)C1 (atropisomer, axis not shown) ?
A. 0.1 to 1 µM

Q. What value of measured IC50 is listed for CCN(c1nc(OC[C@@]23CCCN2C[C@H](F)C3)nc2c(F)c(-c3ccc(F)c4sc(N)c(C#N)c34)c(C(F)(F)F)cc12)[C@H]1CCN(C(=O)C(C)(C)C)C1 (atropisomer, axis not shown) ?
A. 0.1 to 1 µM
